So I've got a bunch of molecules here, and I need their EC50 values.
Test system: primary human mesenchymal stem cells (hMSCs)
Assay: Chondrogenesis screening using primary human mesenchymal stem cells
Type: cell-based
Settings: Homo sapiens, Mesenchymal stem cells, hMSC chondrogenesis; concentration required to induce 50% levels of chondrogenesis with TGF-β3 as positive control; read-out: Conc (nM) of 50% TGF-β3 activity
Experimental: Representative compounds were screened using primary human mesenchymal stem cells (hMSCs) to determine their ability to induce chondrogenesis (process by which cartilage is developed). […] Area of nodules in each well was normalized to the average of 3 DMSO treated wells on the same plate using Excel (Microsoft Inc.). The normalized averages (fold change over DMSO) of 2 or 3 replicate wells for each compound concentration were calculated. […]
Give the quantity in nM, number only.

### Prompt Output EC50 of c1ccc2[nH]c(-c3n[nH]c4ncc(-c5cncc(CN6CCCC6)c5)cc34)cc2c1 [compound 444]
### Response 10

### Prompt // fetch EC50 given entry CCNCc1cncc(-c2ccc3[nH]nc(-c4cc5cccnc5[nH]4)c3n2)c1 [compound 440]
### Response 10

### Prompt Entry CCCCC(=O)Nc1cncc(-c2ccc3[nH]nc(-c4nc5c(-c6ccoc6)cncc5[nH]4)c3n2)c1 [compound 231] needs its EC50 filled in; supply it.
### Response 10

### Prompt Answer with the recorded EC50 for the molecule listed here: Cn1cc(-c2cc3c(-c4nc5c(-c6cccc(F)c6)nccc5[nH]4)n[nH]c3cn2)cn1 [compound 156]
### Response 100

###

Would you kindly list EC50 for each of these molecules?
Molecular target: CLK3 kinase (Homo sapiens, UniProt P49761)
Sequence (P49761 whole entry): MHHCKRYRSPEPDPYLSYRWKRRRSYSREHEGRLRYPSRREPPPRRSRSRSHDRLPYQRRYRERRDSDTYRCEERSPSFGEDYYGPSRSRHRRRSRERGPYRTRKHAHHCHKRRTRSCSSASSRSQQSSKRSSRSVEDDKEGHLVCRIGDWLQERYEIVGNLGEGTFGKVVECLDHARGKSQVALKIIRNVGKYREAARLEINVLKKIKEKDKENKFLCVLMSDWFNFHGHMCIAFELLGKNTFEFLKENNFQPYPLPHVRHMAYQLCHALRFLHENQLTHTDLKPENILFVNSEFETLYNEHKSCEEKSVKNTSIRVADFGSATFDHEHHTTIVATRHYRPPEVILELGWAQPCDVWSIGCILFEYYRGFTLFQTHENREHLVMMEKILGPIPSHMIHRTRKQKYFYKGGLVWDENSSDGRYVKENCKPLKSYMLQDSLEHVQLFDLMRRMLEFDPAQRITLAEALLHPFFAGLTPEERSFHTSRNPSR
Assay: CLK3 kinase activity assay (Z-lyte FRET);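 further: kinase activity read as coumarin/fluorescein emission ratio by FRET, unphosphorylated peptide as 0% and phosphorylated peptide as 100% control, values from non-linear regression of dose-response curves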
Settings: Z-lyte Ser/Thr 18 peptide, 156 μM ATP, 1 h at room temperature
Provide only the numeric value, understood in nM.

### Prompt Indicate the recorded EC50 value for this molecule: O=C(Nc1cccnc1)c1n[nH]c2ccc(-c3cncc(CN4CC5CC(C4)O5)c3)cc12
### Response 44

### Prompt Respond only with EC50 recorded for CN(C)c1cncc(-c2ccc3[nH]nc(-c4nc5c(-c6cccc(F)c6)cncc5[nH]4)c3n2)c1
### Response 12

### Prompt Please report EC50 for the following molecule: Cn1cc(-c2cc3c(C(=O)Nc4ccc5c(c4)CNC5)n[nH]c3cc2F)cn1
### Response 116

### Prompt Please give the documented EC50 of O=C(Nc1ccc(OCCN2CCCC2)cc1)c1n[nH]cc1/C=C/c1cccnc1
### Response 967

### Prompt Determine from records and report EC50 for O=C(Nc1cncc(-c2ccc3[nH]nc(-c4nc5c(-c6ccccc6F)cccc5[nH]4)c3n2)c1)C(F)(F)F
### Response 180

### Prompt Consider the molecule CCCCC(=O)Nc1cncc(-c2ccc3[nH]nc(-c4nc5c(-c6cc(F)cc(NCCN(C)C)c6)ccnc5[nH]4)c3n2)c1 . State its measured EC50.
### Response 79

### Prompt State its EC50 for this molecule: COc1cncc(-c2ccc3[nH]nc(-c4cc5c(-c6ccoc6)nccc5[nH]4)c3c2)c1
### Response 117

###

Target: CLK2 kinase (Homo sapiens, UniProt P49760)
Sequence (P49760 whole entry): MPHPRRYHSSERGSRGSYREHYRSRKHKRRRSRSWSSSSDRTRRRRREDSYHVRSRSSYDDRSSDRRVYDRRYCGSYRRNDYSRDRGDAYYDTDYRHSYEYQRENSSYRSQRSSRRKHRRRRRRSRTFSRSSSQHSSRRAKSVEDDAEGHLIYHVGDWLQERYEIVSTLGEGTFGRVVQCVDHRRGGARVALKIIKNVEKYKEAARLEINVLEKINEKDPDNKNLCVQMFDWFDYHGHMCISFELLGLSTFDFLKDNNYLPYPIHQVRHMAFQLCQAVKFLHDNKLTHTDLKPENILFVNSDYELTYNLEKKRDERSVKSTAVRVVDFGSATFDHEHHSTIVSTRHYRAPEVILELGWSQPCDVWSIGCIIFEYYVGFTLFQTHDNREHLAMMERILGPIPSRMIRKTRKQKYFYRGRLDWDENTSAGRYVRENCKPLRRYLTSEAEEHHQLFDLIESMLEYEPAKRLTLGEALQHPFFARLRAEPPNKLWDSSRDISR
Experiment: CLK2 kinase activity assay (Z-lyte FRET)
Type: biochemical
Conditions: Z-lyte Ser/Thr 6 peptide, 60 μM ATP, 1 h at room temperature
pEC50: −log10 of the molar value.
Would you please tag the item 1 when its pEC50 is 8 or above, and -1 when it is below?

### Prompt Hi team, for CN1CCN(c2ccnc3[nH]c(-c4n[nH]c5ncc(-c6cn[nH]c6)cc45)cc23)CC1 [compound 497] , is the recorded pEC50 at or above 8?
### Response 1

### Prompt Tell me whether pEC50 is at least 8 here: CN1CCC2(CC1)CN(c1cc(C(=O)Nc3cc4cc(-c5cnn(C)c5CO)ccc4cn3)ccn1)C2 [compound 568]
### Response 1

### Prompt Does O=C(Nc1ccnnc1)c1n[nH]c2ccc(-c3cccnc3)cc12 [compound 64] have a reported pEC50 of at least 8?
### Response 1

### Prompt Is reported pEC50 greater than or equal to 8 here: CN1CCC(n2cc(C(=O)Nc3cc4cc(-c5cnc6cc[nH]c6c5)ccc4cn3)cn2)CC1 [compound 605]
### Response 1

### Prompt Answer whether pEC50 of COc1cncc(C(=O)Nc2c[nH]nc2C(=O)Nc2ccc(CN(C)C)cc2)c1 [compound 4] is greater than or equal to 8.
### Response -1

###

Target: CLK2 kinase (Homo sapiens, UniProt P49760)
Experiment: CLK2 kinase activity assay (Z-lyte FRET);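 further: FRET read-out as coumarin to fluorescein emission ratio, unphosphorylated peptide as 0% and phosphorylated peptide as 100% controls, duplicate reactions, non-linear regression fit of dose-response curves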
Details: Z-lyte Ser/Thr 6 peptide, 60 μM ATP, 1 h at room temperature
EC50 strictly under 5 nM means Fulfilled; at 5 nM or over means Not fulfilled.

### Prompt hey, is EC50 for O=C(Nc1cc2cc(-c3cnco3)cnc2cn1)[C@H]1CC[C@H](CO)CC1 lower than 5 nM or not?
### Response Not fulfilled

### Prompt Given the entry CC(C)n1cc(C(=O)Nc2cc3cc(-c4cncc(NC5CCN(C)CC5)n4)ncc3cn2)cn1 , would its reported EC50 be below 5 nM?
### Response Not fulfilled

### Prompt In plain terms, does O=C1CCc2cccc(c2)-c2cncc3[nH]c(nc23)-c2n[nH]c3ccc(cc23)-c2cncc(c2)N1 come in under 5 nM for EC50?
### Response Fulfilled

### Prompt Is EC50 of CN1CCN(c2nccc3[nH]c(-c4n[nH]c5ccc(-c6cncc(NC(=O)C7CCCCC7)c6)cc45)cc23)CC1 strictly below 5 nM?
### Response Not fulfilled

### Prompt Please check: EC50 for O=C(Nc1ccc(N2CC(CO)(CO)C2)nc1)c1n[nH]c2ccc(-c3cncc(CN4CCCCC4)c3)cc12 , strictly under 5 nM or not?
### Response Fulfilled

### Prompt Input FC1(F)CCN(Cc2cncc(-c3ccc4[nH]nc(-c5cc6c(-c7cccnc7)ccnc6[nH]5)c4c3)c2)C1 ; condition: EC50 strictly below 5 nM. Does it hold?
### Response Not fulfilled

###

Target: CLK3 kinase (Homo sapiens)
Test: CLK3 kinase activity assay (Z-lyte FRET)
Conditions: Z-lyte Ser/Thr 18 peptide, 156 μM ATP, 1 h at room temperature
pEC50: −log10 of the molar value.
// N strictly below 7 in pEC50; Y otherwise

### Prompt Does pEC50 meet or surpass 7 for Cc1ccncc1-c1cc2c(-c3nc4c(-c5cc(F)cc(CNS(C)(=O)=O)c5)cncc4[nH]3)n[nH]c2cn1 ?
### Response Y

### Prompt Exam item: decide whether the reported pEC50 for COc1cncc(C(=O)Nc2c[nH]nc2C(=O)Nc2ccc3c(c2)CCN(C)C3)c1 is at least 7.
### Response N

### Prompt pEC50 >= 7 for Cc1ncc(C(=O)Nc2cc3cc(-c4cnc(C)n4C)ccc3cn2)s1 ?
### Response Y

### Prompt Decide: is the reported value of pEC50 for Cn1cc(-c2ccc3cnc(NC(=O)c4ccnc(N5CC6CC5CN6)c4)cc3c2)cn1 (stereo not drawn) equal to or greater than 7?
### Response Y

### Prompt In plain terms: is recorded pEC50 at least 7 for COc1ccc(NC(=O)c2n[nH]cc2/C=C/c2cncc(CN3CCCCC3)c2)cn1 ?
### Response N

### Prompt Confirm if pEC50 reported for the compound CC(C)CC(=O)Nc1cncc(-c2cnc3[nH]nc(-c4cc5c(-c6ccncc6)cccc5[nH]4)c3c2)c1 is 7 or above.
### Response N

### Prompt Check this compound for pEC50 at or above 7: O=C(Nc1cncc(-c2ccc3[nH]nc(-c4cc5c(-c6ccncc6)nccc5[nH]4)c3c2)c1)C1CCCC1
### Response Y

### Prompt Is reported pEC50 greater than or equal to 7 here: O=C(Nc1cncc(-c2ccc3[nH]nc(-c4cc5c(-c6cccnc6)nccc5[nH]4)c3c2)c1)c1ccccc1
### Response Y

### Prompt Form field: pEC50 at least 7? Entry: CCNCc1cncc(-c2ccc3[nH]nc(-c4cc5c(-c6cc(F)cc(CNS(C)(=O)=O)c6)cncc5[nH]4)c3c2)c1
### Response Y

### Prompt Is reported pEC50 greater than or equal to 7 here: O=C(Nc1cc2cc(-c3cncc(NC4CCNCC4)n3)ccc2cn1)C1CCCCC1
### Response Y

### Prompt Quick check: does O=C(Nc1cncc(-c2cnc3[nH]nc(-c4cc5c(-c6cccs6)nccc5[nH]4)c3c2)c1)C1CCC1 have pEC50 greater than or equal to 7?
### Response Y

### Prompt // inclusive: pEC50 at least 7? input: Cc1n[nH]c2ccc(-c3cncc(NCC4(F)CNC4)n3)cc12
### Response N

### Prompt Does the reported pEC50 for c1cncc(-c2ccc3[nH]nc(-c4nc5c(-c6cccnc6)cncc5[nH]4)c3c2)c1 fall at or above the 7 mark?
### Response N

### Prompt Reported pEC50 at or above 7? Cn1ncc(-c2ccc3cnc(NC(=O)c4cccc(CN5CCCC5)c4)cc3c2)c1CN1CCCCC1
### Response Y

### Prompt Threshold query (pEC50 >= 7) on FC1(F)CCN(Cc2cncc(-c3ccc4[nH]nc(-c5cc6c(-c7cccnc7)cncc6[nH]5)c4n3)c2)C1
### Response N

### Prompt Hi team, for Cc1cn(-c2cncc3[nH]c(-c4n[nH]c5ccc(-c6cncc(NC(=O)CC(C)C)c6)cc45)nc23)cn1 , is the recorded pEC50 at or above 7?
### Response Y

### Prompt In plain terms: is recorded pEC50 at least 7 for CN(C)Cc1cncc(-c2ccc3[nH]nc(-c4cc5c(N6CCCCC6)nccc5[nH]4)c3c2)c1 ?
### Response N

### Prompt Given the entry CCCCC(=O)Nc1cncc(-c2cnc3[nH]nc(-c4cc5c(-c6ccncc6)cncc5[nH]4)c3c2)c1 , answer whether its pEC50 meets or surpasses 7.
### Response N

### Prompt Test whether the compound O=C(Nc1cncc(-c2cc3c(-c4cc5c(-c6cccnc6)cccc5[nH]4)n[nH]c3cn2)c1)C1CC1 records pEC50 of 7 or higher.
### Response N

### Prompt Say whether CC(C)C(=O)Nc1cncc(-c2ccc3[nH]nc(-c4nc5c(-c6cccnc6)cncc5[nH]4)c3c2)c1 shows pEC50 of 7 or more.
### Response Y

### Prompt // inclusive: pEC50 at least 7? input: CS(=O)(=O)NCc1cc(F)cc(-c2nccc3[nH]c(-c4n[nH]c5ncc(-c6cncc(NC(=O)C7CCC7)c6)cc45)cc23)c1
### Response Y

### Prompt Could you verify whether the entry Nc1cncc(-c2ccc3[nH]nc(-c4cc5c(-c6ccccn6)ccnc5[nH]4)c3c2)c1 shows pEC50 of no less than 7?
### Response Y

### Prompt Tell me whether pEC50 is at least 7 here: CN1CCN(c2cc(C(=O)Nc3cc4cc(-c5cnc(N)s5)ccc4cn3)ccn2)CC1
### Response Y

### Prompt Form field: pEC50 at least 7? Entry: O=C(CC1CCNCC1)Nc1cncc(-c2ccc3[nH]nc(-c4cc5c(-c6ccccn6)cccc5[nH]4)c3n2)c1
### Response Y

### Prompt Form field: pEC50 at least 7? Entry: Cc1n[nH]c2ccc(-c3cncc(NN4CCNCC4)n3)cc12
### Response N

### Prompt Exam item: decide whether the reported pEC50 for Nc1cncc(-c2ccc3[nH]nc(-c4cc5c(-c6ccccc6F)ccnc5[nH]4)c3c2)c1 is at least 7.
### Response Y
